- TARGET: HIV-1 Env of isolate MGRM-D-019 (subtype D) (HIV-1)
- TEST SUMMARY: cell-based or functional assay
Consider the following binders; for each one, report its IC50 (neutralization).

Look up IC50 (neutralization) for the entries below, preserving their order.
1. PGT-135 (antibody, V domains shown) VH: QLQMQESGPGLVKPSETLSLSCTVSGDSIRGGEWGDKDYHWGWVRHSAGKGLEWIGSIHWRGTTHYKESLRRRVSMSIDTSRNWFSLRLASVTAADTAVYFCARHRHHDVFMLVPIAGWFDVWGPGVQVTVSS VL: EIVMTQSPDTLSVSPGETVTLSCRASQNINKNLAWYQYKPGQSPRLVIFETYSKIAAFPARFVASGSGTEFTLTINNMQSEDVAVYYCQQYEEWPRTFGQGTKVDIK
2. PGT-136 (antibody, V domains shown) VH: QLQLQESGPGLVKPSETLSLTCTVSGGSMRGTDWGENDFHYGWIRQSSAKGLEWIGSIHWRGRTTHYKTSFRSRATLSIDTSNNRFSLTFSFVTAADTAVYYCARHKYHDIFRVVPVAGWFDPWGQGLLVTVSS VL: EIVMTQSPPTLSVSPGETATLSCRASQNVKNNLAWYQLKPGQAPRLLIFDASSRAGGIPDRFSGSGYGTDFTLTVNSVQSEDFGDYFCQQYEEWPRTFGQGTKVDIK

1. > 50 mg/L
2. > 50 mg/L
